Where do these numbers come from? They come from patent US20250388544A1.

molecular target: hMeprin α (Homo sapiens, UniProt Q16819); assay: Enzymatic assay, quenched peptide substrate cleavage, method A; assay type: biochemical; settings: geometric mean (geometric SD factor in parentheses), read-out: Meprin alpha IC50
Sequence (Q16819 66-746): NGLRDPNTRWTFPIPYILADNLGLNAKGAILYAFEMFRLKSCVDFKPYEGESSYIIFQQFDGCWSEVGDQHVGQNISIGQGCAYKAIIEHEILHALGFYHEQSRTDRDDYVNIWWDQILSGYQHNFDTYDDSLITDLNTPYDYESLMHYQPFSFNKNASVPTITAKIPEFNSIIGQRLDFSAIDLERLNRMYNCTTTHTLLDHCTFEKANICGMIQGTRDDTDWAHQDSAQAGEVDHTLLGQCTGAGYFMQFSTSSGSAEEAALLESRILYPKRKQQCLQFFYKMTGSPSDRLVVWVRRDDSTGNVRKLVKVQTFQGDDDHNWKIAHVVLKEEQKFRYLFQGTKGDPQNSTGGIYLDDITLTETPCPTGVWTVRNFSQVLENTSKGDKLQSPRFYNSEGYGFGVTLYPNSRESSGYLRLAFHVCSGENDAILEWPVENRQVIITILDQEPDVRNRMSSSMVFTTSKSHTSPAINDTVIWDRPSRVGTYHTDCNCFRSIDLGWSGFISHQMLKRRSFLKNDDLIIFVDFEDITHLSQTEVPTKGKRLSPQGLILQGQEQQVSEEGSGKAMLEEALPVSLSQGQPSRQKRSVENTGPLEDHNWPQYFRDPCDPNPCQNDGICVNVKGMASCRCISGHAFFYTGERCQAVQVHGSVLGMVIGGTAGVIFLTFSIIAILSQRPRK
QUANTITY: pIC50
Here pIC50 is given on a logarithmic scale as minus log10 of the concentration in mol/L.

QUERY: Given the entry `O=C(Cc1c(-c2ccc(Cl)c(O)c2F)nc2ccccn12)NO` , report its measured pIC50.
RESULT: 6.87

QUERY: Given the entry `O=C(Cn1c(-c2ccccc2)cc2ccccc21)NO` , report its measured pIC50.
RESULT: 7.14

QUERY: Given the entry `O=C(Cn1c(-c2ccccc2)nnc1-c1ccccc1)NO` , report its measured pIC50.
RESULT: 7.16
